tested on: HRAS; test: 3' UTR reporter interaction score (median-centred robust z-score of log2 firefly/Renilla activity); higher = less repression of the 3' UTR reporter; settings: HEK293T; 48 h
Would you mind telling me the reported 3' UTR reporter interaction score of each entry?
Output spec: single numeric token, no unit.

Recorded 3' UTR reporter interaction score for "AGGGAUCGCGGGCGGGUGGCGGCCU" , please?
-0.484

Param item = "CCUAGUAGGUGUCCAGUAAGUGU" ; retrieve measured 3' UTR reporter interaction score.
-0.971

What value of measured 3' UTR reporter interaction score is listed for "AAAAUGGUUCCCUUUAGAGUGUU" ?
0.747

I have this sequence here, "CAAGAACCUCAGUUGCUUUUGU" , and I need its recorded 3' UTR reporter interaction score.
1.03

// lookup 3' UTR reporter interaction score for "CUGACCUAUGAAUUGACAGCC"
0.344

Bench note: what 3' UTR reporter interaction score did "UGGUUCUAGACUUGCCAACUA" show?
0.292

I am curious: what 3' UTR reporter interaction score value has been reported for "CUUCUUGUGCUCUAGGAUUGU" ?
0.138

Which 3' UTR reporter interaction score is reported for this sequence? "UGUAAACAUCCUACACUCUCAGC"
0.698

Can you look up the measured 3' UTR reporter interaction score of "UAGUAGACCGUAUAGCGUACG" for me?
-0.49

So what does the record say about 3' UTR reporter interaction score for "UUUGGCAAUGGUAGAACUCACA" ?
-0.139

So what does the record say about 3' UTR reporter interaction score for "AUUCCUAGAAAUUGUUCAUA" ?
-0.0105

Entry "UUAUGGUUUGCCUGGGACUGAG" : reported 3' UTR reporter interaction score = ?
0.369

Need 3' UTR reporter interaction score of "AAAGCGCUUCCCUUCAGAGUGU" , thanks.
-0.152

3' UTR reporter interaction score for "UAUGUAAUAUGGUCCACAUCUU" ?
-0.0539

Give its 3' UTR reporter interaction score value. Item: "AGACUUCCCAUUUGAAGGUGGC"
-0.109

Which 3' UTR reporter interaction score is listed for "CUUGGUUCAGGGAGGGUCCCCA" ?
-0.543

3' UTR reporter interaction score lookup needed for "UGGCAGUGUCUUAGCUGGUUGUU" , thanks.
1.33

Look at this sequence and give its reported 3' UTR reporter interaction score. "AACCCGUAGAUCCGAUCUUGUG"
0.465

Requested field: 3' UTR reporter interaction score. Item: "UUUCAAGCCAGGGGGCGUUUUUC"
-0.232

3' UTR reporter interaction score lookup needed for "UGUGUCACUCGAUGACCACUGU" , thanks.
1.13

For the sequence shown here, "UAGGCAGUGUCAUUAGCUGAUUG" , give the reported 3' UTR reporter interaction score.
1.22

I would be grateful if you could share the reported 3' UTR reporter interaction score for "UAAUACUGCCGGGUAAUGAUGG" .
-0.939

Item under review: "UAACAGUCUACAGCCAUGGUCG" . Reported 3' UTR reporter interaction score?
0.64

Field request: 3' UTR reporter interaction score | item: "GAGUGCCUUCUUUUGGAGCGU"
-0.294

Endpoint output: 3' UTR reporter interaction score of "UUCAACGGGUAUUUAUUGAGCA" . Value?
1.35

// query 3' UTR reporter interaction score value for entry "UAGCACCAUUUGAAAUCGGU"
0.156

Consider the sequence "AGAUCGACCGUGUUAUAUUCGC" and give its measured 3' UTR reporter interaction score.
0.57

If you can, please state the reported 3' UTR reporter interaction score value of "UCAAAUGCUCAGACUCCUGU" .
0.546

So what does the record say about 3' UTR reporter interaction score for "UAGCACCAUUUGAAAUCAGUGUU" ?
-0.0949

What does the record list as 3' UTR reporter interaction score for "ACUCCAGCCCCACAGCCUCAGC" ?
0.232

GET /values?readout=3' UTR reporter interaction score&item= "CUUUCAGUCGGAUGUUUGCAGC"
0.271

// lookup 3' UTR reporter interaction score for "CAACGGAAUCCCAAAAGCAGCU"
0.275

# query: 3' UTR reporter interaction score of entry "CUGGACUUGGAGUCAGAAGGCC"
0.243

Which 3' UTR reporter interaction score value belongs to "GCUAGUCCUGACUCAGCCAGU" ?
-0.409

Look at this sequence and give its reported 3' UTR reporter interaction score. "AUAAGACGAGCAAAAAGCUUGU"
0.557

Report 3' UTR reporter interaction score for "UGAGAACUGAAUUCCAUGGGUU" please.
-0.164

Record request: 3' UTR reporter interaction score value, item "CAAAACUGGCAAUUACUUUUGC"
0.367

Look at this sequence and give its reported 3' UTR reporter interaction score. "CCACUGCCCCAGGUGCUGCUGG"
-0.594

I am curious: what 3' UTR reporter interaction score value has been reported for "GAAGGCGCUUCCCUUUGGAGU" ?
-1.8

Quick one: 3' UTR reporter interaction score of "CUGGCCCUCUCUGCCCUUCCGU" ?
1.31

Please give the measured 3' UTR reporter interaction score for this sequence: "CCCAGUGUUCAGACUACCUGUUC"
-0.0015

I would be grateful if you could share the reported 3' UTR reporter interaction score for "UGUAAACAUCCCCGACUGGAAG" .
0.945

Which 3' UTR reporter interaction score is reported for this sequence? "AUCGGGAAUGUCGUGUCCGCC"
0.0629

Which measured 3' UTR reporter interaction score value corresponds to "UGUCUUACUCCCUCAGGCACAU" ?
-1.06

Would you kindly share the measured 3' UTR reporter interaction score for "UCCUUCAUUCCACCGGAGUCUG" ?
-1.28

Which 3' UTR reporter interaction score reading was recorded for the sequence "AGACCAUGGGUUCUCAUUGU" ?
-0.0387

Given the sequence "UAAGUGCUUCCAUGUUUGAGUGU" , what is its reported 3' UTR reporter interaction score?
0.22

What measured 3' UTR reporter interaction score goes with "GCACAUUACACGGUCGACCUCU" ?
-0.25

I'd like to know its 3' UTR reporter interaction score. The sequence in question is "UAGUACCAGUACCUUGUGUUCA"
0.088

Fill blank: measured 3' UTR reporter interaction score of the sequence "GAGCCAGUUGGACAGGAGC" is ____.
0.00377

# get_value(readout='3' UTR reporter interaction score', item= "UGAGCUAAAUGUGUGCUGGGA" )
-0.575

Any idea what its 3' UTR reporter interaction score is? The sequence is "UCUUUGGUUAUCUAGCUGUAUGA"
0.757

Which 3' UTR reporter interaction score is reported for this sequence? "CAAAGUGCCUCCCUUUAGAGUGU"
0.317

====

tested on: NOTCH1; experiment: 3' UTR reporter interaction score (median-centred robust z-score of log2 firefly/Renilla activity); higher = less repression of the 3' UTR reporter; conditions: HEK293T; 48 h
measure: 3' UTR reporter interaction score
Write no unit; give the number alone.

Dear colleague, I am looking for the recorded 3' UTR reporter interaction score of the following sequence: "UGAUUGGUACGUCUGUGGGUAGA"
-4.51

# input sequence: "AACGCACUUCCCUUUAGAGUGU" ; wanted: its 3' UTR reporter interaction score
0.0977

Given the sequence "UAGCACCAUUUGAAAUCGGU" , what is its reported 3' UTR reporter interaction score?
0.946

Would you mind telling me what 3' UTR reporter interaction score value was observed for "AAAGUGCUUCCUUUUAGAGGG" ?
1.06

Please report the recorded 3' UTR reporter interaction score for "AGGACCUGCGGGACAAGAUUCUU" .
0.243

Entry "UUUCCAUAGGUGAUGAGUCAC" has what 3' UTR reporter interaction score?
-0.326

Field request: 3' UTR reporter interaction score | item: "AGGGGUGGUGUUGGGACAGCUCCGU"
-4.27

Quick one: 3' UTR reporter interaction score for "UGAGGUAGUAAGUUGUAUUGUU" ?
0.263

What 3' UTR reporter interaction score value was documented for this sequence, "GGAGAAAUUAUCCUUGGUGUGU" ?
0.146

Reported 3' UTR reporter interaction score, sequence "UCAGAACAAAUGCCGGUUCCCAGA" : ____
-0.509

Name the reported 3' UTR reporter interaction score value associated with the sequence "UACAGUAGUCUGCACAUUGGUU"
-0.605

Fill blank: measured 3' UTR reporter interaction score of the sequence "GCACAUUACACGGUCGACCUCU" is ____.
-0.223

Look at this sequence and give its reported 3' UTR reporter interaction score. "ACUCAAAAUGGGGGCGCUUUCC"
-0.52

Param item = "ACUAGACUGAAGCUCCUUGAGG" ; retrieve measured 3' UTR reporter interaction score.
-0.733

3' UTR reporter interaction score lookup needed for "AAAGUGCAUCCUUUUAGAGGUUU" , thanks.
1.67

Item "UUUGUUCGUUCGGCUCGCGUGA" has what recorded 3' UTR reporter interaction score?
0.323

Recorded 3' UTR reporter interaction score of "AAAGUGCUUCCUUUUAGAGGGUU" , please.
0.779

So what's the measured 3' UTR reporter interaction score for this one? "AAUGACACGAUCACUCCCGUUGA"
-1.98

Bench note: what 3' UTR reporter interaction score did "AGCUACAUUGUCUGCUGGGUUUC" show?
0.703

So what does the record say about 3' UTR reporter interaction score for "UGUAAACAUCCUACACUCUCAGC" ?
-1.62

Query: 3' UTR reporter interaction score; subject: "GAAGUGCUUCGAUUUUGGGGUGU"
0.231

Request the reported 3' UTR reporter interaction score associated with "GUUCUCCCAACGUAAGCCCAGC"
-0.479

# 3' UTR reporter interaction score lookup, item "UGGAAGACUAGUGAUUUUGUUG"
-0.0478

Dear colleague, I am looking for the recorded 3' UTR reporter interaction score of the following sequence: "CAGUGCAAUAGUAUUGUCAAAGC"
1.2

Param item = "ACAAAGUGCUUCCCUUUAGAGUGU" ; retrieve measured 3' UTR reporter interaction score.
0.486
